Data credit: patent US7157487B2

target entity: integrins haα4 and β1 (VLA-4) expressed on CHO cells (Homo sapiens, UniProt P05556+P13612)
Sequence (P13612 34-1032): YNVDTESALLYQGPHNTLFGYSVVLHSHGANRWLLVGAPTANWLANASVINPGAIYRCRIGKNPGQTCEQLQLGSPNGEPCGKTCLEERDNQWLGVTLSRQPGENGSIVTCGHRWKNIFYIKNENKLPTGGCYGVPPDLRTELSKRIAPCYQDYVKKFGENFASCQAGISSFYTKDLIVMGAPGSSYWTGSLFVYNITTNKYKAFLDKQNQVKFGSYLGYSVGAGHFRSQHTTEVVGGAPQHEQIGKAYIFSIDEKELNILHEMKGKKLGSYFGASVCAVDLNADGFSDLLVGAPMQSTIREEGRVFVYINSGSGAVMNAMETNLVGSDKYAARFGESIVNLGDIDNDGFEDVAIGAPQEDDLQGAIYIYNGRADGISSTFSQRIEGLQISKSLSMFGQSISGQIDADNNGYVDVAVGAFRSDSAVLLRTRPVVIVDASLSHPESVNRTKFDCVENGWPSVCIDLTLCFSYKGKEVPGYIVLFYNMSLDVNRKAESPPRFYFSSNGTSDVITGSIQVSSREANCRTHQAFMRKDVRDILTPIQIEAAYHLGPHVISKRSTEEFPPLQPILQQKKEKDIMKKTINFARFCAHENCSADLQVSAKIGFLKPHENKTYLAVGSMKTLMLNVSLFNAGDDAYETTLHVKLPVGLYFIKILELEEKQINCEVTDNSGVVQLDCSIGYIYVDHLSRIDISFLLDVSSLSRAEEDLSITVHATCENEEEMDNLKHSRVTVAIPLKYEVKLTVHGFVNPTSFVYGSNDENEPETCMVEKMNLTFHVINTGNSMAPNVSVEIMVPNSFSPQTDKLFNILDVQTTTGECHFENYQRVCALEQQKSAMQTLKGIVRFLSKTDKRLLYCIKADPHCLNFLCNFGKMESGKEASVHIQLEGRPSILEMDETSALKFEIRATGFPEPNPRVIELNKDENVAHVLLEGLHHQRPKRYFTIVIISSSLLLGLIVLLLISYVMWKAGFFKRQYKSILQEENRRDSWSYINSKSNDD
Sequence (P05556 21-798): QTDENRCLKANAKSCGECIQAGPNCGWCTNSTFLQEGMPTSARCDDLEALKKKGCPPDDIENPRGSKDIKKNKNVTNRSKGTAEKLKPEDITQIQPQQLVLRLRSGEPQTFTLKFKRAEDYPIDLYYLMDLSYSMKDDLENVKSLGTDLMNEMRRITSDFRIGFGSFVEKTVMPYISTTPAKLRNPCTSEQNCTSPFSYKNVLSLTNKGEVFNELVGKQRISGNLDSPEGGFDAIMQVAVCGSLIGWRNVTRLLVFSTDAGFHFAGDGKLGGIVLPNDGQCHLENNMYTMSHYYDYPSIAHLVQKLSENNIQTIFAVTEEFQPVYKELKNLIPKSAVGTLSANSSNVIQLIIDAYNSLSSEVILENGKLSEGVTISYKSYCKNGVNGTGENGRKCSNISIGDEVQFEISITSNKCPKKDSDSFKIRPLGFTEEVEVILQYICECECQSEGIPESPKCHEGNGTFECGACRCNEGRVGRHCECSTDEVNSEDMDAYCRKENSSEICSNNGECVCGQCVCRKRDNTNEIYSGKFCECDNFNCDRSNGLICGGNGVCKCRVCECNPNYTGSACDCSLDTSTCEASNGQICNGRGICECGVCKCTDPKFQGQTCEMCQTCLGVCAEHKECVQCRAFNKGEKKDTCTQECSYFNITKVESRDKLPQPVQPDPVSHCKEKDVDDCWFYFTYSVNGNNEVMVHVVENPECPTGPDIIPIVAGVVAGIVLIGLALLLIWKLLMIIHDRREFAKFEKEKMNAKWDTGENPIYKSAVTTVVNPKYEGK
measurement notes: In vitro Evaluation Test (1): binding of Eu3+-hVCAM-1 D1D7-IgG to CHO cells expressing integrins α4 and β1
setup conditions: inhibition of Eu3+-hVCAM-1 D1D7-IgG binding to CHO cells expressing α4β1; Ki calculated from IC50
pKi: −log10 of the molar value.
// reported pKi for each item listed
property: pKi

compound: Cc1ccccc1Nc1nc2ccc(CC(=O)N3C[C@@H](F)C[C@H]3COC3CCC(C(=O)O)CC3)cc2o1 (single isomer, unassigned) [21 (Isomer H)]
target entity: integrins haα4 and β1 (VLA-4) expressed on CHO cells (Homo sapiens, UniProt P05556+P13612)
property: pKi
measured value: 8.60
--
compound: Cn1cc(C(=O)Nc2cc(F)c(CC(=O)N3C[C@@H](S(C)(=O)=O)C[C@H]3CO[C@H]3CC[C@H](C(=O)O)CC3)cc2Cl)c2ccccc21
target entity: integrins haα4 and β1 (VLA-4) expressed on CHO cells (Homo sapiens, UniProt P05556+P13612)
property: pKi
measured value: 8.57
--
compound: Cn1cc(-c2nc3ccc(CC(=O)N4C[C@@H](F)C[C@H]4CO[C@H]4CC[C@H](C(=O)O)CC4)c(F)c3o2)c2ccccc21
target entity: integrins haα4 and β1 (VLA-4) expressed on CHO cells (Homo sapiens, UniProt P05556+P13612)
property: pKi
measured value: 8.44

----------
target entity: integrins haα4 and β1 (VLA-4) expressed on CHO cells (Homo sapiens, UniProt P05556+P13612)
measurement notes: In vitro Evaluation Test (1): binding of Eu3+-hVCAM-1 D1D7-IgG to CHO cells expressing integrins α4 and β1
setup conditions: inhibition of Eu3+-hVCAM-1 D1D7-IgG binding to CHO cells expressing α4β1; Ki calculated from IC50
Simple rule here: Ki less than 7 nM is true (1), otherwise false (0).

molecule: Cc1ccccc1Nc1nc2ccc(CC(=O)N3C[C@@H](S(=O)(=O)c4ccccc4)C[C@H]3CO[C@H]3CC[C@H](C(=O)O)CC3)cc2o1 [Example 124]
class: true (1)
//
molecule: O=C(Nc1ccc(CC(=O)N2C[C@@H](F)C[C@H]2COC2CCC(C(=O)O)CC2)cc1Cl)c1c[nH]c2ccccc12 (stereo partly shown) [Example 38]
class: true (1)
//
molecule: CO[C@H]1C[C@@H](CO[C@H]2CC[C@H](C(=O)O)CC2)N(C(=O)Cc2ccc3nc(Nc4ccccc4Cl)oc3c2F)C1 (relative stereo) [Example 114]
class: true (1)
//
molecule: CO[C@H]1C[C@@H](CO[C@H]2CC[C@H](C(=O)O)CC2)N(C(=O)Cc2cc(Cl)c(NC(=O)c3cn(C)c4ccccc34)cc2F)C1 [Example 116]
class: true (1)
//
molecule: Cc1c(F)cccc1Nc1nc2ccc(CC(=O)N3C[C@@H](F)C[C@H]3CO[C@H]3CC[C@H](C(=O)O)CC3)c(F)c2o1 [Example 46]
class: false (0)
//
molecule: CO[C@@H]1CN(C(=O)Cc2ccc3nc(Nc4ccccc4C)oc3c2)C[C@@H]1Oc1ccc(C(=O)O)cc1 [Example 155]
class: false (0)
//
molecule: Cc1ccccc1Nc1nc2ccc(CC(=O)N3CC[C@@H](Oc4ccc(C(=O)O)cc4)C3)cc2o1 [Example 34]
class: false (0)
//
molecule: O=C(Cc1ccc2nc(-c3cccc4ccccc34)oc2c1)N1C[C@@H](F)C[C@H]1CO[C@H]1CC[C@H](C(=O)O)CC1 [Example 95]
class: false (0)
//
molecule: Cc1ccc(F)cc1Nc1nc2ccc(CC(=O)N3C[C@@H](F)C[C@H]3CO[C@H]3CC[C@H](C(=O)O)CC3)cc2o1 [Example 41]
class: true (1)
//
molecule: COC[C@H]1C[C@@H](CO[C@H]2CC[C@H](C(=O)O)CC2)N(C(=O)Cc2cc(Cl)c(NC(=O)c3nn(C)c4ccccc34)cc2F)C1 [Example 139]
class: false (0)
//
molecule: O=C(O)c1ccc(OC[C@@H]2C[C@H](F)CN2C(=O)Cc2ccc(NC(=O)c3c[nH]c4ccccc34)c(Cl)c2)cc1 [Example 15]
class: true (1)
//
molecule: COC[C@H]1CC[C@@H](CO[C@H]2CC[C@H](C(=O)O)CC2)N1C(=O)Cc1cc(Cl)c(NC(=O)c2cn(C)c3ccccc23)cc1F [Example 164]
class: true (1)

----------
measurement notes: Evaluation of oral bioavailability by mouse bioassay
Format: in vivo
setup conditions: 10 mg/kg oral, female Balb/C mice, serum 15 minutes after administration, read-out: Blood level
concentration at 15 min vs 2000 ng/mL: at or above is met, below is not met.

molecule: COC[C@H]1CC[C@@H](CO[C@H]2CC[C@H](C(=O)O)CC2)N1C(=O)Cc1cc(Cl)c(NC(=O)c2cn(C)c3ccccc23)cc1F [Example 164]
class: met

molecule: O=C(Cc1ccc(Nc2nc3cc(F)ccc3s2)c(Cl)c1)N1C[C@@H](F)C[C@H]1CO[C@H]1CC[C@H](C(=O)O)CC1 [Example 62]
class: met

molecule: Cn1cc(C(=O)Nc2ccc(CC(=O)N3C[C@@H](F)C[C@H]3CO[C@H]3CC[C@H](C(=O)O)CC3)cc2F)c2ccccc21 [Example 70]
class: met

molecule: COC[C@H]1CC[C@@H](CO[C@H]2CC[C@H](C(=O)O)CC2)N1C(=O)Cc1cc(Cl)c(NC(=O)c2nn(C)c3ccccc23)cc1F [Example 166]
class: met

molecule: CO[C@H]1C[C@@H](CO[C@H]2CC[C@H](C(=O)O)CC2)N(C(=O)Cc2cc(Cl)c(NC(=O)c3cn(C)c4ccccc34)cc2Cl)C1 [Example 170]
class: met

molecule: O=C(O)C1CCC(OC[C@@H]2C[C@H](F)CN2C(=O)Cc2ccc3nc(Nc4ccccc4Cl)oc3c2)CC1 (single isomer, unassigned) [24 (Isomer A)]
class: met

molecule: Cn1cc(C(=O)Nc2ccc(CC(=O)N3C[C@@H](F)C[C@H]3COC3CCC(C(=O)O)CC3)cc2Cl)c2ccccc21 (stereo partly shown) [Example 39]
class: met

molecule: CO[C@@H]1CN(C(=O)Cc2ccc3nc(Nc4ccccc4C)oc3c2)C[C@@H]1Oc1ccc(C(=O)O)cc1 [Example 155]
class: not met

molecule: CO[C@@H]1C[C@@H](CO[C@H]2CC[C@H](C(=O)O)CC2)N(C(=O)Cc2cc(Cl)c(NC(=O)c3cn(C)c4ccccc34)cc2F)C1 [Example 115]
class: not met

molecule: Cn1nc(C(=O)Nc2ccc(CC(=O)N3C[C@@H](F)C[C@H]3CO[C@H]3CC[C@H](C(=O)O)CC3)cc2Cl)c2ccccc21 [Example 89]
class: met

molecule: CO[C@H]1CCN(C(=O)Cc2cc(Cl)c(NC(=O)c3nn(C)c4ccccc34)cc2F)[C@@H]1CO[C@H]1CC[C@H](C(=O)O)CC1 [Example 169]
class: met

molecule: Cn1cc(C(=O)Nc2cc(F)c(CC(=O)N3CCC[C@H]3CO[C@H]3CC[C@H](C(=O)O)CC3)cc2Cl)c2ccccc21 [Example 130]
class: met

----------
target entity: integrins haα4 and β1 (VLA-4) expressed on CHO cells (Homo sapiens, UniProt P05556+P13612)
measurement notes: In vitro Evaluation Test (1): binding of Eu3+-hVCAM-1 D1D7-IgG to CHO cells expressing integrins α4 and β1
setup conditions: inhibition of Eu3+-hVCAM-1 D1D7-IgG binding to CHO cells expressing α4β1; Ki calculated from IC50
pKi: −log10 of the molar value.
// reported pKi for each item listed

compound: Cn1cc(-c2nc3ccc(CC(=O)N4C[C@@H](F)C[C@H]4CO[C@H]4CC[C@H](C(=O)O)CC4)c(F)c3o2)c2cc(F)ccc21 (relative stereo)
pKi: 8.09
//
compound: Cn1cc(C(=O)Nc2ccc(CC(=O)N3C[C@@H](F)C[C@H]3CO[C@H]3CC[C@H](C(=O)O)CC3)cc2F)c2ccccc21
pKi: 8.14
//
compound: Cc1ccc(F)cc1Nc1nc2ccc(CC(=O)N3C[C@@H](F)C[C@H]3C(=O)N[C@H]3CC[C@H](C(=O)O)CC3)c(F)c2o1
pKi: 8.15
//
compound: Cc1ccccc1Nc1nc2ccc(CC(=O)N3C[C@@H](Sc4ccccc4)C[C@H]3CO[C@H]3CC[C@H](C(=O)O)CC3)cc2o1
pKi: 8.24

----------
// reported Ki for each item listed
target entity: integrins haα4 and β1 (VLA-4) expressed on CHO cells (Homo sapiens, UniProt P05556+P13612)
measurement notes: In vitro Evaluation Test (1): binding of Eu3+-hVCAM-1 D1D7-IgG to CHO cells expressing integrins α4 and β1
setup conditions: inhibition of Eu3+-hVCAM-1 D1D7-IgG binding to CHO cells expressing α4β1; Ki calculated from IC50

molecule: COC[C@@H]1CC[C@@H](CO[C@H]2CC[C@H](C(=O)O)CC2)N1C(=O)Cc1cc(Cl)c(NC(=O)c2nn(C)c3ccccc23)cc1F
Ki, nM: 59
//
molecule: O=C(Nc1ccc(CC(=O)N2C[C@@H](F)C[C@H]2CO[C@H]2CC[C@H](C(=O)O)CC2)cc1Cl)c1nccc2ccc(F)cc12
Ki, nM: 18
//
molecule: Cc1ccccc1Nc1nc2ccc(CC(=O)N3CC=C[C@H]3COc3ccc(C(=O)O)cc3)cc2o1
Ki, nM: 37
//
molecule: CS[C@H]1C[C@@H](CO[C@H]2CC[C@H](C(=O)O)CC2)N(C(=O)Cc2cc(Cl)c(NC(=O)c3nn(C)c4ccccc34)cc2F)C1
Ki, nM: 9.7
//
molecule: O=C(Nc1cc(F)c(CC(=O)N2C[C@@H](F)C[C@H]2CO[C@H]2CC[C@H](C(=O)O)CC2)cc1Cl)c1n[nH]c2ccccc12
Ki, nM: 6.8
//
molecule: Cc1ccccc1Nc1nc2ccc(CC(=O)N3C[C@@H](F)C[C@H]3COC3CCC(C(=O)O)CC3)cc2o1 (single isomer, unassigned) [21 (Isomer G)]
Ki, nM: 382
